B1: tRNA (parent)
chain: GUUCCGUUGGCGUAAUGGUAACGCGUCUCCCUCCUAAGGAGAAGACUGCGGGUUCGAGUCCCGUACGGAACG

# Variants of: B1
# ASSAY_DETAILS: yeast fitness relative to wild type (ratio to wild type); higher = fitter; tRNA-Arg(CCU), competitive growth, 37 C, YPD
This sample holds only a part of the variants without activity.
Decide using yeast fitness: a value greater than or equal to 0.6 is rule met, a smaller one is rule not met.

Evaluate GUUCCGUUGGCGUAAUGGUAACGCGCCUCCCUCCUAAGGAGAAGACUGCGGGUUCGAGCCCCGUACGGAACG [U26C U59C] : yeast fitness at minimum 0.6?
rule met

// same read-out, input: GUUCCGAUGGCGUAAUGGUAACGCGUCUCCCUCCUCAGGAGAAGACUGCGCGUUCGAGUCCCAUACGGAACG [U7A A36C G51C G63A]
rule not met

Also need GUUCCGCUGGUGUAAUGGUAACGCGUCUCCCUCCUACGGAGAAGACUGCGGGUUCGAGUCCCGUACGGAACG [U7C C11U A37C] , thanks.
rule not met

Consider next the variant GUUCCGUUGGCGUAAUGGUGACGCGUCUCCCUCCUAACGAGAAGCCUGCGAGUUCGAGUCCCGUACGGAACG [A20G G38C A45C G51A] in the same way.
rule not met

// query: GUUCCGUUGGCGUAAUGGUAACGCGUCUCCCUCCUAAGGAGUAGACUGCGGGUUCGAGUCCAGGAGGGAACG [A42U C62A U64G C66G]
rule not met

Next variant: GUUCCGUUGCCGUAAUGGUAACGCGUCUCCCUGCUAAGGAGAAGACUGCGGGUUCGAGUCCCGUACGGAACG [G10C C33G]
rule not met

// query: GUUCCGUUCGCGUAAUGGUAACGCGUCUCGCUCCUAUGGAGAAGACAGCGGGUUCGAGUCCCGUACGGAACG [G9C C30G A37U U47A]
rule not met

Consider next the variant GUUCCGUUGGCGUAAUGGUAACGCGUCUUCCUCCUAAGGAGAAGACUGCGGGUUCGAGUCCCGUACGGUACG [C29U A69U] in the same way.
rule met

Another variant: GUUCCGUUGACGUAAUGGUCACGCGUCUCCCUCCUAAGGAGAAGACUGCGGGUUCGAGUCAUUUAAGGAACG [G10A A20C C61A C62U G63U C66A]
rule met

And what about the variant GUUCCCUCGGCGUAAUGGUAACGCGUCUCCCUCCUAAGGAGAAGACUGCGGGUUCGACUCCCGUACGGAACG [G6C U8C G58C] ?
rule met

Queued: GUUCCGUUGGCGUAAUGGUAAGCCGUCUCCCUCCUAAGGAGUAGACUGCGGGUUCGAGUCCAGUACGGAACG [C22G G23C A42U C62A]
rule not met

Entry to check: GUUCCGUUGGCGUAUUGGUAACGCGUCUCCCUCUUAAGGAGAAGACUGCGGGUUCGUGUUCCGUACGGAACG [A15U C34U A57U C60U]
rule met

Item: GUUCCGUUGGCGUAUGGGUAACGCGUCUCCCUCCAAAGGAGAAGACUGCGGGUUCGAGACCCGUACGGAACG [A15U U16G U35A U59A]
rule not met

Query GUACCGUUGGAGUAAUGGUAACGCGUCUCCCUUCUAAGGAGAAGACUGCGGGUUCGAGUCCCGUACGGAACG [U3A C11A C33U] next
rule not met

Another variant to look at: GUUUCGUUGGAGUAAUGGUAACGCGUCUCCCUCCUACGGAGAAGACUGCGGGUUCGAGUCCCGUAAGGAACG [C4U C11A A37C C66A]
rule not met

Same again, this time with GUUCCGUAGGCGUAAUGGUAACGCGUCUCUCUCCUAAGGAGAAGACUGCGGGUUCGAGUCCCGUACGGAACG [U8A C30U]
rule met

Next entry: GUUCCGUUGGCGUAAUGGUAACGCGUCUCCCUCAUAAGGAGAAGACUGCGGGUUCGAGUCCCGUACUGAACG [C34A G67U]
rule met

Next: GUUCCGUUGGCGUAGGGGUAACGCGUCUCCCUCCUAAGAAGAAGCCUGCGGGUUCGAGUCACGUACGGAACG [A15G U16G G39A A45C C61A]
rule not met

What about this variant? GUUCCGUUGGUGUAAUGGUAGCGAGUCUCCCUCCUAAGGAGAAGACUGUGGGUUCGAGUCCCGUCCGGAACG [C11U A21G C24A C49U A65C]
rule not met
